assay-system: Histone deacetylase (Homo sapiens) (UniProt Q13547+O15379+Q9UBN7+Q92769+Q9UQL6+Q8WUI4+Q9BY41+Q96DB2+P56524+Q9UKV0+Q969S8)
experimental-parameters: HeLa, at 0.1 µM
Description: Inhibition of HDAC in human HeLa cells at 0.1 uM after 15 mins
For each entry below, report its inhibition value.
Give bare numbers, in %.

Here are 3 compounds together with their reported answers.
1) O=C(CCCCc1cc(CO)no1)Nc1ccccc1: 0
2) O=C(CCCCc1cc(-c2ccccc2O)no1)Nc1ccccc1: 0
3) O=C(CCCCc1cc(CS)no1)Nc1ccccc1: 4.5

List the reported inhibition of each compound below.
1. O=C(CCCCC1CC(C(=O)NO)=NO1)Nc1ccccc1 (stereo not drawn)
2. O=C(CCCc1cc(C(=O)NO)no1)Nc1ccccc1
3. O=C(CCCCc1cc(C(=O)O)no1)Nc1ccccc1

1: 4; 2: 4.5; 3: 0

Consider the following items and state reported inhibition for each.
1. O=C(CCCC1CC(C(=O)NO)=NO1)Nc1ccccc1 (stereo not drawn)
2. O=C(CCCCc1cc(Cc2nn[nH]n2)no1)Nc1ccccc1
3. Nc1ccccc1-c1cc(CCCCC(=O)Nc2ccccc2)on1
4. Nc1cc(CCCCC(=O)Nc2ccccc2)on1
5. NNC(=O)c1cc(CCCCC(=O)Nc2ccccc2)on1
6. O=C(CCCCc1cc(C(=O)NO)no1)Nc1ccccc1
7. O=C(CCCCc1cc(/C=N/O)no1)Nc1ccccc1

3.5
0
0
4.5
0
1.5
0

---

assay-system: Histone deacetylase 3 (Homo sapiens, UniProt O15379)
Sequence (O15379 whole entry): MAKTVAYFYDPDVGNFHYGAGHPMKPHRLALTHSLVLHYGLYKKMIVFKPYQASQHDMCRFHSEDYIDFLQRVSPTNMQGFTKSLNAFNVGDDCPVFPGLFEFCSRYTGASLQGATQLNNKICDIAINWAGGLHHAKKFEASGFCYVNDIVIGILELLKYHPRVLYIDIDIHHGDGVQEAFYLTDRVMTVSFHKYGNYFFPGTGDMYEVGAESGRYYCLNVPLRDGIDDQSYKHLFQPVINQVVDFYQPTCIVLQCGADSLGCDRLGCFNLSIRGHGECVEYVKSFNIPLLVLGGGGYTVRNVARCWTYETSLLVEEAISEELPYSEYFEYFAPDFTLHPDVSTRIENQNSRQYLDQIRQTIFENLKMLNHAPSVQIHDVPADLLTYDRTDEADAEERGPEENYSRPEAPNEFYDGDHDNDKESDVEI
readout-type: IC50 (µM)
One number for each entry, in µM.

Give the reported value of IC50 for this record: O=C(CCCCC1CC(C(=O)NO)=NO1)Nc1ccccc1 (stereo unspecified)
28.1

---

assay-system: UniProt Q9UBN7
Sequence (Q9UBN7 whole entry): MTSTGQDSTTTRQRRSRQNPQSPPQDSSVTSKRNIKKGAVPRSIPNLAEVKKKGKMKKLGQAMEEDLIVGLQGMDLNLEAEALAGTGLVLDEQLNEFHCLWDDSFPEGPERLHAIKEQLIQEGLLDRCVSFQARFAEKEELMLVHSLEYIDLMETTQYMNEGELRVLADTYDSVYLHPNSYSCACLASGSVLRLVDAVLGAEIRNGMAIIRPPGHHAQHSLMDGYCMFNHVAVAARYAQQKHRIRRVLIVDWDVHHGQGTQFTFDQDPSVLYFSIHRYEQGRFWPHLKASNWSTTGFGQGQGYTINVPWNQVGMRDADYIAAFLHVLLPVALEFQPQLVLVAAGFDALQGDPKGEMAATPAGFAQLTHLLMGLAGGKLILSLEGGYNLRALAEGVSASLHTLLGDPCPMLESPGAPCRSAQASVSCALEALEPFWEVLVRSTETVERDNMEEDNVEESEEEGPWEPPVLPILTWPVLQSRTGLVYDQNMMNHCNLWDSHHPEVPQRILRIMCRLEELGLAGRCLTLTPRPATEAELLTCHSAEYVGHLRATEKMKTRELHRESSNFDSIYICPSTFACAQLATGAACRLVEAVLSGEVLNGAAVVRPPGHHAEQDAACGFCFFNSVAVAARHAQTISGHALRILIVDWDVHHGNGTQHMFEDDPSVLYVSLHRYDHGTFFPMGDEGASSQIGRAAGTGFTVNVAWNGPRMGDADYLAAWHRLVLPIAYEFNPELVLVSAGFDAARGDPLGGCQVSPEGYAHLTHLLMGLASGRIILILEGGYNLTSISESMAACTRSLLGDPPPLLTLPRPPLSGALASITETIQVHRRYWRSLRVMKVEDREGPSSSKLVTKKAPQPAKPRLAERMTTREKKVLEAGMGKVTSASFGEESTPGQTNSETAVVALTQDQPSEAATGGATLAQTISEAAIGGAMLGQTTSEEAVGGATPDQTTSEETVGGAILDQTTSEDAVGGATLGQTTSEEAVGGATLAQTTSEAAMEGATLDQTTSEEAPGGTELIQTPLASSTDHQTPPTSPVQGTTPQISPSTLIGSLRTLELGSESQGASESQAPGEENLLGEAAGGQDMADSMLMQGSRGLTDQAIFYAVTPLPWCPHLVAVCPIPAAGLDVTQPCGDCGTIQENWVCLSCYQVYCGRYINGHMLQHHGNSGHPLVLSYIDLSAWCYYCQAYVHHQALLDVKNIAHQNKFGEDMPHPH
readout-type: IC50 (nM)
Answers are plain numbers, in nM.

Hello, please tell me recorded IC50 for this one: "O=C(CCCCc1cc(C(=O)NO)no1)Nc1ccccc1"
430

---

assay-system: Histone deacetylase (Homo sapiens) (UniProt Q13547+O15379+Q9UBN7+Q92769+Q9UQL6+Q8WUI4+Q9BY41+Q96DB2+P56524+Q9UKV0+Q969S8)
experimental-parameters: HeLa, at 10 µM
Description: Inhibition of HDAC in human HeLa cells at 10 uM after 15 mins
The label depends only on inhibition: y if it is at least 60%, n if it is smaller.

1) Nc1cc(CCCCC(=O)Nc2ccccc2)on1: n
2) O=C(CCCCc1cc(-c2ccccc2O)no1)Nc1ccccc1: n
3) O=C(CCCc1cc(C(=O)NO)no1)Nc1ccccc1: y
4) O=C(CCCCC1CC(C(=O)NO)=NO1)Nc1ccccc1 (stereo unspecified): y
5) O=C(CCCCc1cc(/C=N/O)no1)Nc1ccccc1: n

As a next step, examine the compound that follows.
Could you verify whether the entry O=C(CCCC1CC(C(=O)NO)=NO1)Nc1ccccc1 (stereo unspecified) shows inhibition of no less than 60%?
n
